Tested on: IGROV-1
Test Protocol: NCI tumour cell line growth inhibition, 48 h
Calls of active or inactive are those of the source. No stated cut-off is given here; in the data, active = GI50 up to about 1.1 µM and inactive = higher. Square brackets hold non-standard residues; d marks the D form. Peptide text beside a SMILES is read from it.
Kindly state GI50 for each of the entries shown.

Recorded results for 3 molecules are shown here.
N=C(N)NCCC[C@H]1NC(=O)[C@@H](CCC(=O)O)NC(=O)[C@@H](CC(=O)O)NC(=O)[C@@H](CCC(=O)O)NC(=O)[C@H](Cc2c[nH]c3ccccc23)NC1=O (cyclo(W[dE][dD][dE][dR]))
> 7.5 µM (inactive)
CC(C)=CC(=O)CC(=O)C(=O)Nc1ccc(C)c(C)c1
> 100 µM (inactive)
CNc1nnc(CCCCCCCCc2nnc(NC)o2)o1
> 100 µM (inactive)

For every item in the list below, what is its measured GI50?
1. C=CCOC1=C(OC(C)=O)C(=O)OC1C1COC(C)(C)O1 (stereo not given)
2. Cc1nc(N)nc(N)c1CCCCc1ccccc1

result:
["37.9 µM (inactive)", "5.41 µM (inactive)"]
